- Tested on: Erysiphe graminis f. sp. tritici
- protocol.description: Test J: wheat powdery mildew on wheat seedlings, sprayed the day before inoculation, visual disease rating
- Type: in vivo
- test.settings: Blumeria graminis, 168 h; 200 ppm; 100 = 100% disease control, 0 = no control relative to controls
Rule: pest or weed control at 200 ppm of 90% or more gives TRUE; anything lower gives FALSE.

{"columns": ["structure.string", "answer.label"],
 "data": [
  ["COC(=O)Cc1nc(Br)c(-c2c(F)cccc2F)n1-c1ccc(Cl)cc1", "FALSE"],
  ["Fc1cccc(F)c1-c1c(Br)nc(CCBr)n1-c1ccc(Cl)cc1", "FALSE"],
  ["Cc1ncc(-c2ccc(F)cc2)n1-c1ccc(Cl)cc1", "TRUE"],
  ["CNC(=O)Cc1nc(Br)c(-c2c(F)cccc2F)n1-c1ccc(Cl)cc1", "FALSE"],
  ["Fc1cc(F)c(-c2c(Cl)nc(Cl)n2-c2ccc(Cl)cc2)c(F)c1", "TRUE"]
]}
